Assay: Inhibition of alpha-adrenergic receptor
measured-quantity: IC50 (nM)
Your answer should be a plain number; it is taken to be in nM.

Ask | Recorded IC50 for Oc1ccc2[nH]c(CN3CCC(Cc4ccc(F)cc4)CC3)nc2c1 , please?
Reply | 620

* * *

Biological target: Glutamate NMDA receptor; GRIN1/GRIN2A (Homo sapiens) (UniProt Q05586+Q12879)
Assay: Antagonist activity against NR1a/NR2A receptor transfected in human HEK293 cells assessed as inhibition of NMDA-induced Ca2+ influx at 10 uM
Assay type: functional, cell-based
measured-quantity: inhibition (%)
Your answer should be a plain number; it is taken to be in %.

Sample answers from the record:
Oc1ccc2[nH]c(CN3CCC(Cc4ccc(F)cc4)CC3)nc2c1 :: 10.5
O=C(Nc1ccc2nc(O)oc2c1)C(=O)N1CCC(Cc2ccc(F)cc2)CC1 [RADIPRODIL] :: 10.1
CC(C(O)c1ccc(O)cc1)N1CCC(Cc2ccccc2)CC1 (stereo not given) :: 22.3
O=C(Nc1ccc2[nH]c(=O)sc2c1)C(=O)N1CCC(Cc2ccc(F)cc2)CC1 :: 13.2

Continue with the molecule presented below.
Ask | Kindly state the measured inhibition obtained for O=C1Cc2cc(NC(=O)C(=O)N3CCC(Cc4ccc(F)cc4)CC3)ccc2N1 with Glutamate NMDA receptor; GRIN1/GRIN2A (Homo sapiens) (UniProt Q05586+Q12879).
Reply | 14.5

* * *

Assay: Metabolic stability in Sprague-Dawley rat plasma assessed as half life by radio thin layer chromatography analysis
Format: ADME, cell-free
measured-quantity: half-life (min)
Your answer should be a plain number; it is taken to be in min.

Sample answers from the record:
[18F]c1ccc(CC2CCNCC2)cc1 :: 10
O=C(Nc1ccc2[nH]c(=O)oc2c1)C(=O)N1CCC(Cc2ccc([18F])cc2)CC1 :: 50

Continue with the compound presented below.
Ask | Recorded half-life for Oc1ccc2[nH]c(CN3CCC(Cc4ccc([18F])cc4)CC3)nc2c1 , please?
Reply | 35

* * *

Target: Glutamate NMDA receptor; GRIN1/GRIN2B (Homo sapiens, UniProt Q05586+Q13224)
Sequence (Q13224 whole entry, other chains not shown): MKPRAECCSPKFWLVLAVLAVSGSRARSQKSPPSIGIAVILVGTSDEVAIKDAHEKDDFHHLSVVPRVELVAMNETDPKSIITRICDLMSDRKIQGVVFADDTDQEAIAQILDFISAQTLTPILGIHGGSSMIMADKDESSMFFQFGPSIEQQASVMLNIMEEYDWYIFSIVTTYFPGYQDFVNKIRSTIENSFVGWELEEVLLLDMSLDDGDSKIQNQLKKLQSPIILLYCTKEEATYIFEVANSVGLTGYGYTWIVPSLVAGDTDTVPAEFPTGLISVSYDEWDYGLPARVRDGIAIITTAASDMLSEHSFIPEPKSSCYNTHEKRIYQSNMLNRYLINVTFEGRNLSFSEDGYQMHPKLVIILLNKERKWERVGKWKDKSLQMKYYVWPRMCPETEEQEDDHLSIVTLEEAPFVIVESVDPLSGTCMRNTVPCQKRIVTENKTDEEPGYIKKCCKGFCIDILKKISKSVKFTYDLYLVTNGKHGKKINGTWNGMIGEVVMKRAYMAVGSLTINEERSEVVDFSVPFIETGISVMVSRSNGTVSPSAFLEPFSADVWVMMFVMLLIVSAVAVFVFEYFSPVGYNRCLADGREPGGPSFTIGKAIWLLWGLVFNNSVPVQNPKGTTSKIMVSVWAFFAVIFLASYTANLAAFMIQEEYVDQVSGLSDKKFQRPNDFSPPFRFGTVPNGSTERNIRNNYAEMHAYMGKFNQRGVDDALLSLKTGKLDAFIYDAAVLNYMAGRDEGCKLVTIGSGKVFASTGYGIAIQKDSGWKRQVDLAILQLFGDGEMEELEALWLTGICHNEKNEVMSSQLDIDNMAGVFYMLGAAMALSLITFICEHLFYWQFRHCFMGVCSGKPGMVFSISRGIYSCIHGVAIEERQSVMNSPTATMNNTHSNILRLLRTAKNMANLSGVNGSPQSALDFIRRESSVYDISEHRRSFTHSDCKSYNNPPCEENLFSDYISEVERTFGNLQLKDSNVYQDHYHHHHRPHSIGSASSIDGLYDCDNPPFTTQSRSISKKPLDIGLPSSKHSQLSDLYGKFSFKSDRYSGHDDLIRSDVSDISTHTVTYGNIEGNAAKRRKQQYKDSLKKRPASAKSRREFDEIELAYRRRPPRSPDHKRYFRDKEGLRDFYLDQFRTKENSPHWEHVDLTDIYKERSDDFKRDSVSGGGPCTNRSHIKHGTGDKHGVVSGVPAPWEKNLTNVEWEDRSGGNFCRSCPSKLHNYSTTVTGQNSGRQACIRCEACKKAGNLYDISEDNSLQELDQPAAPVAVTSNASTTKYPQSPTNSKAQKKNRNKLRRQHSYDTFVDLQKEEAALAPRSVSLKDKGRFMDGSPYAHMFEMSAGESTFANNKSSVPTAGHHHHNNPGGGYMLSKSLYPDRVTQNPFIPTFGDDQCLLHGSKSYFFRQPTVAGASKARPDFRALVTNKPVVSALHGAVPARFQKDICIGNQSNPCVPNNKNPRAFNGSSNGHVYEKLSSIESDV
Test: Antagonist activity against NR1a/NR2B receptor transfected in human HEK293 cells assessed as inhibition of NMDA-induced Ca2+ influx
Format: functional, cell-based
measured-quantity: IC50
Answer format: value, then unit.

Sample answers from the record:
CS(=O)(=O)Nc1ccc2nc(CN3CCC(Cc4ccccc4)CC3)[nH]c2c1 :: 50.3 nM
O=C(Nc1ccc2[nH]c(=O)oc2c1)C(=O)N1CCC(Cc2ccc(F)cc2)CC1 :: 69.9 nM
CS(=O)(=O)Nc1ccc2[nH]c(CN3CCC(Cc4ccc(F)cc4)CC3)nc2c1 :: 57.7 nM

Ask | Recorded IC50 for Oc1ccc2nc(CN3CCC(Cc4ccccc4)CC3)[nH]c2c1 , please?
Reply | 209 nM

Ask | Moving on to the next compound: O=C(Nc1ccc2[nH]c(=O)sc2c1)C(=O)N1CCC(Cc2ccc(F)cc2)CC1
Reply | 840 nM

Ask | Moving on to the next compound: Oc1ccc2[nH]c(CN3CCC(Cc4ccc(F)cc4)CC3)nc2c1
Reply | 47.3 nM

Ask | Moving on to the next compound: O=C1Cc2cc(NC(=O)C(=O)N3CCC(Cc4ccc(F)cc4)CC3)ccc2N1
Reply | 830 nM
